Test: M. tuberculosis growth inhibition, HTS (AID 449762);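 also: bacterial growth assessed after seven days of incubation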
Details: M. tuberculosis H37Rv growth inhibition, 7H9 media; at 25 µM; stronger effect = higher value
Among all 330,000 compounds or so, about 1,900 (0.58%) were called active. About 4% were inconclusive and are not listed. Only a sample is shown. Measured potencies and affinities stand elsewhere.
Items are presented alongside their recorded inhibition.
Record the value in %, omitting the unit from your answer.

Past entries and their recorded results:
COc1ccc(S(=O)(=O)N=C2C=C(C)C(=O)C(C)=C2)cc1 | -12.4
CC(=O)c1c(N2CCCCC2)nc(=S)n(-c2ccccc2)c1C | -9.27
CCCCc1ccc(/C(C)=N/NC(=O)C2CCCC2)cc1 | -4.47
O=C(CSc1nc(=O)n2ccccc2n1)Nc1cccc2ccccc12 | 5.25
CCOC(=O)c1cnc(SC2CC(=O)N(c3ccc(C)cc3)C2=O)nc1N (stereo unspecified) | -12.6
CCc1nc(C)cn1S(=O)(=O)c1cc(Cl)c(OC)cc1Cl | -6.76

Measured inhibition, Cc1ccc(NC(=O)c2ccccc2NC(=O)c2cccnc2)cc1 : 11.1

Measured inhibition, CCOC(=O)c1cnc(SC2CC(=O)N(c3ccccc3)C2=O)nc1N (stereo unspecified) : -5.11

Measured inhibition, C/C(=N\NC(N)=S)c1ccccc1 : 0.26

Measured inhibition, COc1ccc(C(=O)ON=C2C=C(C)C(=O)C(C)=C2)cc1 : 63.5

Measured inhibition, CC(C)n1cc(CNC(=O)C2CCC(=O)N(Cc3ccccc3F)C2)cn1 (stereo unspecified) : 5.12

* * *

Test: M. tuberculosis growth inhibition, HTS (AID 449762);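 also: bacterial growth assessed after seven days of incubation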
Conditions: M. tuberculosis H37Rv growth inhibition, 7H9 media; at 25 µM; stronger effect = higher value
Screen size: about 330,000 compounds; about 1,900 (0.58%) were called active. About 4% were inconclusive and are not listed. The list is a sample of the results. Results with a measured potency or affinity are listed apart.
Items are presented alongside their recorded inhibition.
Record the value in %, omitting the unit from your answer.

Past entries and their recorded results:
COc1cc(C)ccc1OCCOc1c(C)cccc1Cl | 62.7
CCOc1ccc(CCNC(=O)c2nn(C)c3c2CS(=O)(=O)c2ccccc2-3)cc1OCC | 3.57
CCCN1CCN(C(=O)c2ccc(CS(=O)c3ccc(Cl)cc3)o2)CC1 (stereo unspecified) | -5.84
O=C(O)CSc1nnnn1-c1ccc2c(c1)OCCO2 | -0.83
O=C(COC(=O)CCc1c[nH]c2ccccc12)Nc1ccc([N+](=O)[O-])cc1 | 2.33

Measured inhibition, Nc1nsnc1C(=O)NCCO : -5.83

Measured inhibition, COC(=O)C1(CC2CC(c3ccccc3)=NO2)CCN(C(=O)OC(C)(C)C)CC1 (stereo unspecified) : 3.82

Measured inhibition, CCN(CC)CCN1C(=O)C(=O)/C(=C(/O)c2ccc(S(=O)(=O)N3CCOCC3)cc2)C1c1ccc(C(C)C)cc1 (stereo unspecified) : 1.15

Measured inhibition, CCSc1ncc(/C=N/Nc2ccc(F)cc2)n1C : -4.38

Measured inhibition, CCC(C(=O)Nc1cccc(S(=O)(=O)N(C)c2ccccc2)c1)c1ccccc1 (stereo unspecified) : -1.21

Measured inhibition, CC(C)OC(=O)CSc1nnnn1-c1ccc2c(c1)OCCO2 : -0.39

* * *

Assay: M. tuberculosis growth inhibition, HTS (AID 449762);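 also: bacterial growth assessed after seven days of incubation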
Settings: M. tuberculosis H37Rv growth inhibition, 7H9 media; at 25 µM; stronger effect = higher value
The campaign covered roughly 330,000 compounds. About 1,900 (0.58%) were called active. Another 4% or so got no clear call; they are omitted. These entries were drawn from the full list. Potency and affinity values are given separately.
Observable: inhibition (%)
Record the value in %, omitting the unit from your answer.

Fc1ccc(-n2c(Cn3nnc4ccccc43)n[nH]c2=S)cc1 | -5.75

Measured inhibition, O=[N+]([O-])c1cnc2ccccc2c1 : -7.59

Measured inhibition, CSc1nc2ccsc2c(=O)n1-c1ccccn1 : -2.21

Measured inhibition, CCN(CC)c1ccccc1 : 5.27

Measured inhibition, O=C(O)c1ccc(-[n+]2c(-c3ccccc3)cc(-c3ccccc3)cc2-c2ccccc2)cc1 : -13.1

* * *

Assay: M. tuberculosis growth inhibition, HTS (AID 449762);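 also: bacterial growth assessed after seven days of incubation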
Conditions: M. tuberculosis H37Rv growth inhibition, 7H9 media; at 25 µM; stronger effect = higher value
Out of some 330,000 compounds screened, about 1,900 (0.58%) were called active. Not shown: some 4% with an inconclusive outcome. These entries were drawn from the full list. Potency and affinity values are given separately.
Items are presented alongside their recorded inhibition.
Record the value in %, omitting the unit from your answer.

CCCCCOc1ccc(CSc2ncn[nH]2)cc1 | 29.4
O=C(N/N=C/c1cc2ccccc2nc1Cl)[C@H]1C[C@@H]1c1ccccc1 | 22.8
Oc1ccc(Cl)cc1N=Nc1ccccc1 | -8.24

Measured inhibition, O=c1[nH]cc(S(=O)(=O)Nc2ccc3c(c2)OCO3)c(=O)[nH]1 : 7.53

Measured inhibition, O=[N+]([O-])c1ccc(-c2nc(NCC3CCCO3)c3ccccc3n2)cc1 (stereo unspecified) : 2.21

Measured inhibition, CN1CCN(CCc2nc3cc(NC(=O)c4ccco4)ccc3n2C)CC1 : 3.05

Measured inhibition, COc1ccc(OC)c(NC(=O)CN2C(=O)NC3(CCCc4ccccc43)C2=O)c1 (stereo unspecified) : 0.98

Measured inhibition, O=c1oc(CCO)cc2ccc(Br)cc12 : 9.08

Measured inhibition, CC(C)(C#CCCCCC#CC(C)(C)[N+](C)(C)C)[N+](C)(C)C : -2.46

Measured inhibition, COc1ccc(C2=NOC(Cn3nc(C(=O)O)cc3-c3ccccc3)C2)cc1 (stereo unspecified) : -10.9

Measured inhibition, COc1ccc(NC(=O)CN2C(=O)NC3(CCCc4ccccc43)C2=O)c(OC)c1 (stereo unspecified) : -0.44

* * *

Test: M. tuberculosis growth inhibition, HTS (AID 449762);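 also: bacterial growth assessed after seven days of incubation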
Details: M. tuberculosis H37Rv growth inhibition, 7H9 media; at 25 µM; stronger effect = higher value
About 1,900 (0.58%) of roughly 330,000 compounds were called active. Inconclusive results (about 4%) are left out. The list is a sample of the results. Potency and affinity values are given separately.
Observable: inhibition (%)
Record the value in %, omitting the unit from your answer.

Past entries and their recorded results:
Cc1ccc(Nc2nc(CSc3n[nH]c(N)n3)cs2)cc1 | 0.79
COc1ccc(CN2CCN(Cc3cccc(Oc4ccccc4)c3)CC2)c(OC)c1OC | 22.7
COc1cccc(NS(=O)(=O)c2nc3nc(C)cc(C)n3n2)c1 | -2.88
CCOc1ccc(NS(=O)(=O)c2ccc(C(=O)N(C)CC(=O)Nc3ccc(C)cc3)cc2)cc1 | 56.7
CCNC(=S)N(CCc1c(C)[nH]c2ccccc12)Cc1cccnc1 | -3.56

Measured inhibition, COc1ccc(-n2ncc3c(N4CCC(C(N)=O)CC4)ncnc32)cc1 : 2.74

* * *

Test: M. tuberculosis growth inhibition, HTS (AID 449762);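 also: bacterial growth assessed after seven days of incubation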
Conditions: M. tuberculosis H37Rv growth inhibition, 7H9 media; at 25 µM; stronger effect = higher value
Out of some 330,000 compounds screened, about 1,900 (0.58%) were called active. Roughly 4% stayed inconclusive and do not appear here. A selection follows. Potency and affinity values are given separately.
Items are presented alongside their recorded inhibition.

COc1ccccc1CNC(=O)c1c(-c2ccccc2)nn(-c2ccccc2)c1C | 6.07% (inactive)
Cc1cc(C)n2cc(-c3ccc(Cl)cc3)c(C(=O)O)c2n1 | 5.32% (inactive)

Measured inhibition, COC(=O)COc1ccccc1C(N)=O : -7.49% (inactive)

Measured inhibition, Cc1c(Cl)cccc1NC(CC(=O)c1ccccc1)C(=O)OCC(=O)c1cccs1 (stereo not drawn) : -5.49% (inactive)

Measured inhibition, COC(=O)COc1cc(Cl)c(C=O)cc1OC : 8.16% (inactive)

* * *

Assay: M. tuberculosis growth inhibition, HTS (AID 449762);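 also: bacterial growth assessed after seven days of incubation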
Conditions: M. tuberculosis H37Rv growth inhibition, 7H9 media; at 25 µM; stronger effect = higher value
Among all 330,000 compounds or so, about 1,900 (0.58%) were called active. Roughly 4% stayed inconclusive and do not appear here. Only a sample is shown. Potency and affinity values are given separately.
Observable: inhibition (%)
Record the value in %, omitting the unit from your answer.

Past entries and their recorded results:
CCN(Cc1ccccc1)C(=O)COC(=O)c1cc(S(=O)(=O)Nc2c(C)n(C)n(-c3ccccc3)c2=O)ccc1C | 5.3
COc1ccc(S(=O)(=O)N(C)CC(=O)NCc2ccco2)cc1Cl | 2.22
CCOc1ccc(CNc2ncc(-c3ccccc3)n2C)cc1 | 8.71
Brc1ccc2c(c1)C(c1cccs1)=NNC(c1cccnc1)=N2 | 1.73
COc1ccc2c(c1OC)C(=O)N1C2SC(C)(C)[C@H]1C(=O)NC(C)C (stereo not given in full) | -6.91
C/C(=N\N=C(/N)SC1CC(=O)N(c2cccc(Cl)c2)C1=O)c1cccs1 (stereo not given) | 15.1

Measured inhibition, O=C(NCc1ccccc1CN1CCCC1)c1cccc(S(=O)(=O)N2CCCC2)c1 : -11.2

Measured inhibition, CN(c1ccccc1)S(=O)(=O)c1ccc(Cl)c(C(=O)NCc2ccccc2CN2CCCC2)c1 : -5.7

Measured inhibition, CC(C)(C)c1ccc(C(=O)N2CCC(=O)N(C(COCc3ccccc3)Cc3ccccc3)CC2)cc1 (stereo not given) : -7.28

Measured inhibition, C/C(=N\N=C(/N)SC1CC(=O)N(c2ccccc2)C1=O)c1cccs1 (stereo not given) : -5.01
